Entries and their measured fraction fluorescence in grains follow.
# Assay Overview: clearance of mutant huntingtin inclusions, primary screen, imaging, HeLa Exon1htt(103Q)mCFP, confocal imaging (AID 853);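 further: cells exposed to compound for three days before fixation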
# Assay Context: aggregate imaging, at 1.5 µM; measured here: aggregate grain fluorescence fraction, stronger effect = lower value
About 200 (0.43%) of roughly 47,000 compounds were called active. Roughly 1% stayed inconclusive and do not appear here. The full list was thinned out, with actives kept by preference.
I'd appreciate a reply containing only the number, no unit.

CCC(=O)c1ccc(OCC(O)CN2CCN(c3cccc(C(F)(F)F)c3)CC2)cc1 (stereo unspecified)
27.8
CCCCOC(=O)Cn1c(=O)n(CC(=O)OCCCC)c2cc(C)ccc21
19
CCC(=O)c1ccc(OCC(O)CN2CC(C)OC(C)C2)cc1 (stereo unspecified)
7.49
CC(=O)NC(C)c1nc2ccccc2n1Cc1ccccc1F (stereo unspecified)
3.88

stdin: Look up fraction fluorescence in grains for this compound: CCOC(=O)CN1C(=O)C(=O)c2cc(C)ccc21
stdout: 50.7

stdin: Ok, now CC(=O)Nc1ccc(OCC(O)CN2CCN(c3ccccc3Cl)CC2)cc1 (stereo unspecified)
stdout: 27.5

###

# Assay Overview: clearance of mutant huntingtin inclusions, primary screen, imaging, HeLa Exon1htt(103Q)mCFP, confocal imaging (AID 853);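 further: cells exposed to compound for three days before fixation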
# Assay Context: aggregate imaging, at 1.5 µM; stronger effect = higher value, zero = plate's median compound well
About 200 (0.43%) of roughly 47,000 compounds were called active. Not shown: some 1% with an inconclusive outcome. Only a selection was taken, and actives are over-represented in it overall.
Is inhibition at least 10%? Then 1. If not, 0.

Worked set:
CCOC(=O)CN1C(=O)C(=O)c2cc(C)ccc21
0
CCN(CC)S(=O)(=O)c1ccc2c3c(cccc13)C(=O)S2
0
Cc1ccc(C2C(C#N)C(C#N)N3CCCN23)cc1 (stereo not drawn)
1

stdin: Reported inhibition reaches at least 10% for Cc1ccc(S(=O)(=O)N2CC(=O)Nc3ccccc32)cc1C ?
stdout: 1

stdin: Repeat for the following compound: CCn1c(O)c2ccc(C(=O)N=NC(=O)c3cccnc3)cc2c1O
stdout: 0

stdin: Try Cc1cccc(C)c1-n1c(C)cc(/C=C2\C(=O)NN(c3ccccc3)C2=O)c1C next.
stdout: 1

stdin: Do the same for COc1ccc(C(=O)Nc2nc(-c3ccc(OC)cc3)c(-c3ccc([N+](=O)[O-])cc3)s2)cc1 please
stdout: 1

stdin: Also Oc1c(C(c2cccs2)N2CCN(c3ccc(F)cc3)CC2)sc2ncnn12 (stereo not drawn) ?
stdout: 0

###

# Assay Overview: clearance of mutant huntingtin inclusions, primary screen, imaging, HeLa Exon1htt(103Q)mCFP, confocal imaging (AID 853);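 further: cells exposed to compound for three days before fixation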
# Assay Context: aggregate imaging, at 1.5 µM; measured here: aggregate grain fluorescence fraction, stronger effect = lower value
The campaign covered roughly 47,000 compounds. About 200 (0.43%) were called active. Roughly 1% stayed inconclusive and do not appear here. The entries come from a sample that favours actives as a whole.
# Lookup of reported fraction fluorescence in grains keyed by entry
Answer using only a numeral; do not append any unit.

Answered cases to consult:
CC(C)c1nc(N2CCOCC2)c(C#N)c2c1COC(C)(C)C2
31.9
Cc1ccc2[nH]c3c(=O)n(Cc4ccccn4)cnc3c2c1
21.3
C/C(=C\C(=O)c1ccc(Br)cc1)N1CCCCC1
28.4
CSc1ccc(-c2c(C#N)c(N)nc3c2c(C)nn3-c2ccccc2)cc1
47.5
Cc1cc(Cl)c(S(=O)(=O)N(C)C)cc1OCC(N)=O
20.5

stdin: What does the record list as fraction fluorescence in grains for O=C(Nc1ncc2c(n1)-c1ccccc1OC2)c1ccc(Cl)cc1 ?
stdout: 34.8

stdin: Also need Cc1ccc(S(=O)(=O)N2CC(=O)Nc3ccccc32)cc1C , thanks.
stdout: 33.9

stdin: Field entry: O=C(CSCc1ccc(Cl)cc1)N1CCCCC1
stdout: 25.4

###

# Assay Overview: clearance of mutant huntingtin inclusions, primary screen, imaging, HeLa Exon1htt(103Q)mCFP, confocal imaging (AID 853);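 further: cells exposed to compound for three days before fixation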
# Assay Context: aggregate imaging, at 1.5 µM; measured here: aggregate grain fluorescence fraction, stronger effect = lower value
Screen size: about 47,000 compounds; about 200 (0.43%) were called active. Inconclusive results (about 1%) are left out. Many of the other results were omitted from the sample, so actives are more common in it than they were.
Reported fraction fluorescence in grains values for a set of compounds
// keep it numeric: no unit symbol after the value

Some solved entries appear below for comparison.
CCOC(=O)c1c(NC(=O)CSc2nnc(CNc3ccc(C)cc3C)o2)sc(C)c1C
20
Cc1ccc(-n2ccc(=O)c(C(=O)O)n2)cc1
23.5
CC1(C)CC(=O)C(C=NCCN2CCN(C(=S)Nc3cccc(Cl)c3)CC2)=C(O)C1
25.7
Cc1cc(C)nc(SCc2ccccc2C#N)n1
35.4
COc1ccc(NC(=O)CCN2CCCC2)c(OC)c1
11.3

stdin: # input compound: O=C(c1ccc(F)cc1)c1c[nH]c(C(=O)NCc2cccnc2)c1 ; wanted: its fraction fluorescence in grains
stdout: 38.1

stdin: Now consider Cc1cccc(-c2nc3c(c(SCC(=O)N4CCOCC4)n2)CCCC3)c1 and answer again.
stdout: 18.5

stdin: Same question, N=c1c2c(-c3ccccc3)c(-c3ccccc3)oc2ncn1Cc1ccco1 this time
stdout: 39.1

stdin: Check COc1ccc(NS(=O)(=O)c2ccc(NC(=O)C(C)(C(F)(F)F)C(F)(F)F)cc2)nn1 too.
stdout: 26.9

stdin: What do you get for CCOc1ccc(N=Cc2c(O)n(-c3cccc(C)n3)c(=O)c3ccccc23)cc1 ?
stdout: 45.9

stdin: Proceed to CCSc1nnc(NC(=O)Cc2ccccc2OC)s1
stdout: 52.6

###

# Assay Overview: clearance of mutant huntingtin inclusions, primary screen, imaging, HeLa Exon1htt(103Q)mCFP, confocal imaging (AID 853);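 further: cells exposed to compound for three days before fixation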
# Assay Context: aggregate imaging, at 1.5 µM; measured here: aggregate grain fluorescence fraction, stronger effect = lower value
The campaign covered roughly 47,000 compounds. About 200 (0.43%) were called active. About 1% were inconclusive and are not listed. The sample as a whole holds a higher share of actives than the screen did.
Binary call on fraction fluorescence in grains with cut-off 30: strictly below means Fulfilled, and equality or higher means Not fulfilled.

COC(=O)C(C)Oc1ccc2c(-c3cccc([N+](=O)[O-])c3)cc(=O)oc2c1 (centres undefined)
Not fulfilled
O=C(NC1CCc2ccccc21)C12CN(Cc3ccccc3)CC1C(c1cccc([N+](=O)[O-])c1)=NO2 (centres undefined)
Not fulfilled
NC1=NC(=O)C2(COC(c3ccccc3Cl)OC2)S1 (centres undefined)
Fulfilled
CCOc1ccccc1C1NC(=O)NC(C)=C1C(=O)OCc1ccco1 (centres undefined)
Not fulfilled

stdin: Report whether reported fraction fluorescence in grains is lower than 30 (strictly) for COC(=O)[C@@H](NC(=O)Nc1cc(Cl)ccc1C)C(C)C
stdout: Not fulfilled

stdin: Try this compound next: COc1ccccc1NC(=O)c1ccc2nc(N3C(=O)CCC3=O)sc2c1
stdout: Fulfilled

stdin: Cool, now COc1ccccc1NC(=O)CSc1nnc(C)n1CC1CCCO1 (centres undefined)
stdout: Fulfilled

stdin: Okay, and CC(=O)N1CCN(c2cccc(C)c2C)CC1 ?
stdout: Not fulfilled

stdin: Record: O=c1[nH]c(=O)n(Cc2ccco2)c2c1C(C(F)(F)F)(C(F)(F)F)N=C(c1ccco1)N2
stdout: Fulfilled

###

# Assay Overview: clearance of mutant huntingtin inclusions, primary screen, imaging, HeLa Exon1htt(103Q)mCFP, confocal imaging (AID 853);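 further: cells exposed to compound for three days before fixation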
# Assay Context: aggregate imaging, at 1.5 µM; stronger effect = higher value, zero = plate's median compound well
About 200 (0.43%) of roughly 47,000 compounds were called active. Roughly 1% stayed inconclusive and do not appear here. Shown is part of a subset that was picked to be rich in actives.
Attribute Measured: inhibition (%)
Express it in %; write the number only.

COc1ccc(CCN2CNc3c(c(=O)n(C)c(=O)n3C)C2)cc1OC
-203

stdin: inhibition lookup needed for CC(Sc1nnc(Cc2ccc([N+](=O)[O-])cc2)o1)C(N)=O (stereo not given) , thanks.
stdout: 0.3

stdin: Repeat with Cc1ccnc(SCCn2c(N(C)Cc3ccccc3)nc3c2c(=O)n(C)c(=O)n3C)n1
stdout: -10.6

stdin: Moving on to the next compound: CCCC(=O)N1CCc2[nH]c3ccccc3c2C1
stdout: 21.6

stdin: Consider next the compound COc1ccc(NS(=O)(=O)c2ccc(NC(=O)C(C)(C(F)(F)F)C(F)(F)F)cc2)nn1 in the same way.
stdout: -29.8

###

# Assay Overview: clearance of mutant huntingtin inclusions, primary screen, imaging, HeLa Exon1htt(103Q)mCFP, confocal imaging (AID 853);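 further: cells exposed to compound for three days before fixation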
# Assay Context: aggregate imaging, at 1.5 µM; measured here: aggregate grain fluorescence fraction, stronger effect = lower value
Hit rate of the full screen: of about 47,000 compounds, about 200 (0.43%) were called active. Not shown: some 1% with an inconclusive outcome. What follows is part of a selection rich in actives, with near analogues and random picks from the rest.
Attribute Measured: fraction fluorescence in grains
Please reply with the number alone, leaving off any unit.

CCOc1ccc(N(CC(=O)NC2CCCCCC2)S(=O)(=O)c2c(C)[nH]c(=O)[nH]c2=O)cc1
41.2
COc1nc(-c2ccc(Cl)cc2)ccc1-c1noc(-c2cccs2)n1
28.7
Cc1ccc(C2C(C#N)C(C#N)N3CCCN23)cc1 (stereo not drawn)
23.7
CCn1c(O)c2ccc(C(=O)N=NC(=O)c3cccnc3)cc2c1O
37.7
Cn1c(NC(=O)c2ccc3c(c2)OCO3)cc(=O)n(C)c1=O
24.1
COc1ccc(Oc2coc3cc(OC(=O)c4cncc(Br)c4)ccc3c2=O)cc1
38.8
N#Cc1c(/N=C/N2CCCC2)oc(-c2ccccc2)c1-c1ccccc1
60.3
O=C(O)c1ccc(NS(=O)(=O)c2cccc3nsnc23)cc1
5.36

stdin: What measured fraction fluorescence in grains goes with Cc1nnc(SCC(=O)NCCOc2ccc(Cl)cc2)n1-c1ccccc1 ?
stdout: 36.3

stdin: Record: CCCc1cc(=O)[nH]c(SCC(=O)OCc2ccccc2)n1
stdout: 59.2

stdin: What do you get for Cc1c(CN2CCC(C)CC2)c(=O)n(-c2ccccc2)n1C ?
stdout: 56.1

stdin: Proceed to CCN(CC)CCN1C(=O)C(=O)/C(=C(/O)c2cnn(-c3ccccc3)c2C)C1c1cccs1 (stereo not drawn)
stdout: 54.5

stdin: Consider next the compound CCCC(=O)N1CCc2[nH]c3ccccc3c2C1 in the same way.
stdout: 26.6
